Listed here: items and their measured inhibition in vivo at 20 µM.
# Test system: Tobacco mosaic virus
# assayRemarks: In vivo antiviral activity against Tobacco mosaic virus strain U1 (TMV) infected left side of Nicotiana glutinosa leaves assessed as decrease in local lesion numbers at 20 uM co-incubated with virus for 30 min before inoculation onto leaves measured at 3-4 days after viral challenge by half-leaf method
# Type: functional
# include the unit after the value

Worked examples follow.
• CC1=C[C@H](O)[C@@H](O)[C@]2(C)[C@H]3[C@@H](O)[C@H](O)[C@@]4(C)OC[C@@]35[C@@H](C[C@@H]12)OC(=O)[C@H](O)[C@]54O = 28.7%
• COC(=O)[C@]12OC[C@]34[C@H]([C@@H](O)[C@@H]1O)[C@@]1(C)CC(=O)C(O[C@@H]5O[C@H](CO)[C@@H](O)[C@H](O)[C@H]5O)=C(C)[C@@H]1C[C@H]3OC(=O)[C@H](OC(=O)C=C(C)C)[C@@H]24 [Bruceoside-B] = 78.4%
• COC(=O)[C@@]12OC[C@]34[C@H]([C@@H](O)[C@@H]1O)[C@@]1(C)C=C(O[C@@H]5O[C@H](CO)[C@@H](O)[C@H](O)[C@H]5O)C(=O)[C@@H](C)[C@@H]1C[C@H]3OC(=O)[C@H](OC(=O)C=C(C)C)[C@@H]24 [BRUCEOSIDE A] = 24.1%

Please turn your attention to the following entry.
**Query** Query (molecule): "COC(=O)[C@@]12OC[C@]34[C@H]([C@@H](O)[C@@H]1O)[C@@]1(C)CC(=O)C(O)=C(C)[C@@H]1C[C@H]3OC(=O)[C@H](OC(C)=O)[C@@H]24" ; field requested: inhibition in vivo at 20 µM
**Result** 88.9%

###

# Test system: Tobacco mosaic virus
# assayRemarks: In vivo antiviral activity against Tobacco mosaic virus strain U1 (TMV) infected left side of Nicotiana glutinosa leaves assessed as decrease in local lesion numbers at 10 uM co-incubated with virus for 30 min before inoculation onto leaves measured at 3-4 days after viral challenge by half-leaf method
# Type: functional
// reported inhibition in vivo at 10 µM per item
Field: numeric (%). Do not append units.

These recorded examples may help you get a feel for the data.
- COC(=O)[C@]12OC[C@]34[C@H]([C@@H](O)[C@@H]1O)[C@@]1(C)CC(=O)C(O[C@@H]5O[C@H](CO)[C@@H](O)[C@H](O)[C@H]5O)=C(C)[C@@H]1C[C@H]3OC(=O)[C@H](OC(C)=O)[C@@H]24 [YADANZIOSIDE I]: 67.9
- COC(=O)[C@]12OC[C@]34[C@H]([C@@H](O)[C@@H]1O)[C@@]1(C)CC(=O)C(O)=C(C)[C@@H]1C[C@H]3OC(=O)[C@H](OC(=O)C=C(C)C)[C@@H]24: 71.5
- CNCC(=O)N[C@@H](CO)C(=O)N[C@H]1[C@H](O)[C@@H](O)[C@H](n2ccc(N)nc2=O)O[C@@H]1C(N)=O: 67.5

**Query** Would you mind telling me what inhibition in vivo at 10 µM value was observed for COC(=O)[C@]12OC[C@]34[C@H]([C@@H](O)[C@@H]1O)[C@@]1(C)CC(=O)C(O[C@@H]5O[C@H](CO)[C@@H](O)[C@H](O)[C@H]5O)=C(C)[C@@H]1C[C@H]3OC(=O)[C@H](OC(=O)/C=C(\C)C(C)(C)O)[C@@H]24 [Yadanzioside L] ?
**Result** 64.3

###

Here the recorded inhibition in vivo at 5 µM is given for each entry.
# Test system: Tobacco mosaic virus
# assayRemarks: In vivo antiviral activity against Tobacco mosaic virus strain U1 (TMV) infected left side of Nicotiana glutinosa leaves assessed as decrease in local lesion numbers at 5 uM co-incubated with virus for 30 min before inoculation onto leaves measured at 3-4 days after viral challenge by half-leaf method
# Format: functional
Response body: numeric value in %, unit text excluded.

# example entries with known answers
* COC(=O)[C@]12OC[C@]34[C@H]([C@@H](O)[C@@H]1O)[C@@]1(C)CC(=O)C(O[C@@H]5O[C@H](CO)[C@@H](O)[C@H](O)[C@H]5O)=C(C)[C@@H]1C[C@H]3OC(=O)[C@H](OC(=O)/C=C(\C)C(C)(C)O)[C@@H]24 [Yadanzioside L] | 53.3
* COC(=O)[C@@]12OC[C@]34[C@H]([C@@H](O)[C@@H]1O)[C@@]1(C)CC(=O)C(O)=C(C)[C@@H]1C[C@H]3OC(=O)[C@H](OC(C)=O)[C@@H]24 | 65.2
* COC(=O)[C@]12OC[C@]34[C@H]([C@@H](O)[C@@H]1O)[C@@]1(C)CC(=O)C(O[C@@H]5O[C@H](CO)[C@@H](O)[C@H](O)[C@H]5O)=C(C)[C@@H]1C[C@H]3OC(=O)[C@H](OC(=O)C=C(C)C)[C@@H]24 [Bruceoside-B] | 53.8

Consider now this further molecule.
**Query** Value lookup for inhibition in vivo at 5 µM; key = "CC1=CC(=O)[C@@H](O)[C@]2(C)[C@H]3[C@@H](O)[C@H](O)[C@]4(C)OC[C@@]35[C@@H](C[C@@H]12)OC(=O)[C@H](O)[C@]54O"
**Result** 47.9

###

inhibition in vivo at 20 µM by entry:
# System: Tobacco mosaic virus
# assayRemarks: In vivo antiviral activity against Tobacco mosaic virus strain U1 (TMV) infected left side of Nicotiana glutinosa leaves assessed as decrease in local lesion numbers at 20 uM co-incubated with virus for 30 min before inoculation onto leaves measured at 3-4 days after viral challenge by half-leaf method
# Assay type: functional
Write it as a number; the unit % goes unstated.

* CC1=C[C@H](O[C@@H]2O[C@H](CO)[C@@H](O)[C@H](O)[C@H]2O)[C@@H](O)[C@]2(C)[C@H]3[C@@H](O)[C@H](O)[C@]4(C)OC[C@@]35[C@@H](C[C@@H]12)OC(=O)[C@H](O)[C@]54O | 30.6

**Query** Look up inhibition in vivo at 20 µM with Tobacco mosaic virus for this compound: COC(=O)[C@]12OC[C@]34[C@H]([C@@H](O)[C@@H]1O)[C@@]1(C)C=C(O[C@@H]5O[C@H](CO)[C@@H](O)[C@H](O)[C@H]5O)C(=O)[C@@H](C)[C@@H]1C[C@H]3OC(=O)[C@H](OC(C)=O)[C@@H]24 [YADANZIOSIDE F]
**Result** 31.1

**Query** Also need CC1=CC(=O)[C@@H](O)[C@]2(C)[C@H]3[C@@H](O)[C@H](O)[C@]4(CO)OC[C@@]35[C@@H](C[C@@H]12)OC(=O)[C@H](O)[C@]54O [YADANZIOLIDE A] , thanks.
**Result** 75

**Query** Also check "CNCC(=O)N[C@@H](CO)C(=O)N[C@H]1[C@H](O)[C@@H](O)[C@H](n2ccc(N)nc2=O)O[C@@H]1C(N)=O"
**Result** 25.3

**Query** What do you have for COC(=O)[C@]12OC[C@]34[C@H]([C@@H](O)[C@@H]1O)[C@@]1(C)[C@H](O)[C@@H](O)C=C(C)[C@@H]1C[C@H]3OC(=O)[C@H](OC(C)=O)[C@@H]24 [YADANZIOSIDE D] ?
**Result** 70.8

**Query** For COC(=O)[C@]12OC[C@]34[C@H]([C@@H](O)[C@@H]1O)[C@@]1(C)CC(=O)C(O[C@@H]5O[C@H](CO)[C@@H](O)[C@H](O)[C@H]5O)=C(C)[C@@H]1C[C@H]3OC(=O)[C@H](OC(C)=O)[C@@H]24 [YADANZIOSIDE I] then?
**Result** 81.5

**Query** Consider next the compound "COC(=O)[C@]12OC[C@]34[C@H]([C@@H](O)[C@@H]1O)[C@@]1(C)CC(=O)[C@H](O)[C@@H](C)[C@@H]1C[C@H]3OC(=O)[C@H](OC(=O)C=C(C)C)[C@@H]24" in the same way.
**Result** 52

**Query** What do you get for "COC(=O)[C@]12OC[C@@]34[C@@H](CC5=C(C)C(=O)C(O)=C[C@]5(C)[C@H]3[C@@H](O)[C@@H]1O)OC(=O)[C@H](OC(C)=O)[C@@H]24" ?
**Result** 59.1

**Query** What would you report for COC(=O)[C@]12OC[C@]34[C@H]([C@@H](O)[C@@H]1O)[C@@]1(C)C=C(O[C@@H]5O[C@H](CO)[C@@H](O)[C@H](O)[C@H]5O)C(=O)[C@@H](C)[C@@H]1C[C@H]3OC(=O)[C@H](OC(=O)/C=C(\C)C(C)(C)OC(C)=O)[C@@H]24 [Yadanzioside G] ?
**Result** 33.7

###

Recorded measurements of inhibition in vivo at 2.5 µM, one per entry
# System: Tobacco mosaic virus
# assayRemarks: In vivo antiviral activity against Tobacco mosaic virus strain U1 (TMV) infected left side of Nicotiana glutinosa leaves assessed as decrease in local lesion numbers at 2.5 uM co-incubated with virus for 30 min before inoculation onto leaves measured at 3-4 days after viral challenge by half-leaf method
# Format: functional
State just the number; it will be interpreted in %.

Here are 4 compounds together with their reported answers.
* COC(=O)[C@]12OC[C@]34[C@H]([C@@H](O)[C@@H]1O)[C@@]1(C)CC(=O)C(O[C@@H]5O[C@H](CO)[C@@H](O)[C@H](O)[C@H]5O)=C(C)[C@@H]1C[C@H]3OC(=O)[C@H](OC(=O)C=C(C)C)[C@@H]24 [Bruceoside-B] | 31.7
* COC(=O)[C@]12OC[C@]34[C@H]([C@@H](O)[C@@H]1O)[C@@]1(C)CC(=O)C(O)=C(C)[C@@H]1C[C@H]3OC(=O)[C@H](OC(=O)C=C(C)C)[C@@H]24 | 48.8
* COC(=O)[C@]12OC[C@]34[C@H]([C@@H](O)[C@@H]1O)[C@@]1(C)CC(=O)C(O[C@@H]5O[C@H](CO)[C@@H](O)[C@H](O)[C@H]5O)=C(C)[C@@H]1C[C@H]3OC(=O)[C@H](OC(C)=O)[C@@H]24 [YADANZIOSIDE I] | 35.4
* CNCC(=O)N[C@@H](CO)C(=O)N[C@H]1[C@H](O)[C@@H](O)[C@H](n2ccc(N)nc2=O)O[C@@H]1C(N)=O | 37.9

**Query** Given the compound CC1=CC(=O)[C@@H](O)[C@]2(C)[C@H]3[C@@H](O)[C@H](O)[C@]4(CO)OC[C@@]35[C@@H](C[C@@H]12)OC(=O)[C@H](O)[C@]54O [YADANZIOLIDE A] , what is its reported inhibition in vivo at 2.5 µM?
**Result** 39.2
